MEASURED TARGET: Rap^3T
PROTOCOL: Microscale thermophoresis (MST) of peptide binding to Rap^3T
Design: species or system Bacillus phage phi3T
EXPERIMENTAL PARAMETERS: MST, Hill model, target 2e-8, MST-Power Medium, Nano - RED, 25.0°C; replicate 3 (third merge-set, c7); read-out: EC50 (Hill fit)
Experimental: Rap^3T was fluorescently labeled with NT-647 amine reactive dye from the Monolith NT Protein Labeling kit RED-NHS (NanoTemper Technologies) according to the manufacturer’s instructions. Briefly, 100 μm solution of the protein was mixed with 3× dye solution, incubated 30 min in dark, and then purified by gravity in a 5 ml size exclusion column equilibrated with dialysis buffer (20 mM Tris-HCl (pH 8), 250 mM NaCl) supplemented with 0.1% pluronic and 5% glycerol to remove free dye. […]
No end group written: not given here.

{"CHAIN SEQUENCE": "RRGHTASIGFTDGHSYDIA [Long1]", "MEASURED TARGET": "Rap^3T", "EC50 [nM]": 186}
